Compiled record: Ki values for Beta-secretase 2 (Homo sapiens, UniProt Q9Y5Z0) across several sources.

CC(NC(=O)c1cc(C(=O)NC(Cc2ccccc2)C(O)CNCc2ccncc2)cc(N(C)S(C)(=O)=O)c1)c1ccccc1 (centres unmarked) : 301 to 500 nM
Cc1nc(COC(=O)N[C@@H](CS(C)(=O)=O)C(=O)N[C@H](CC(C)C)[C@@H](O)C[C@@H](C)C(=O)N[C@@H](C(=O)NCC(C)C)C(C)C)cs1 : < 100 nM
Cc1csc(COC(=O)N[C@@H](CNS(C)(=O)=O)C(=O)N[C@@H](CC(C)C)[C@@H](O)C[C@@H](C)C(=O)N[C@H](C(=O)NCC(C)C)C(C)C)n1 : 100 to 600 nM
Cc1cc(C)n(COC(=O)N[C@@H](C[S+](C)[O-])C(=O)N[C@@H](CC(C)C)[C@@H](O)C[C@@H](C)C(=O)N[C@H](C(=O)NCC(C)C)C(C)C)n1 (some centres unmarked) : < 100 nM

## Task State, in one line, measured Ki of COc1cnc(C(=O)Nc2ccc(F)c([C@]3(C)CS(=O)(=O)C4(CCCCC4)C(=N)N3)c2)cn1
## Result < 50 nM

## Task State, in one line, measured Ki of CN1C(=N)N[C@]2(C)c3cc(NC(=O)c4ccccn4)ccc3OCC[C@@H]2S1(=O)=O
## Result 15 nM

## Task State, in one line, measured Ki of Cc1csc(COC(=O)N[C@@H](CS(C)(=O)=O)C(=O)N[C@H](CC(C)C)[C@@H](O)C[C@@H](C)C(=O)N[C@H](CC(C)C)C(=O)NC(C)C)n1
## Result 100 to 1000 nM

## Task State, in one line, measured Ki of C[C@@]1(c2cc(NC(=O)c3ccc(F)cn3)ccc2F)CS(=O)(=O)C2(CCC2)C(=N)N1
## Result 4.2 nM

## Task State, in one line, measured Ki of CC1(C)C(=N)N[C@@]2(CCOc3ccc(NC(=O)c4cc5ccccn5n4)cc32)CS1(=O)=O
## Result 49 nM

## Task State, in one line, measured Ki of CC(C)[C@H]1C[C@@H]2[C@](c3ccccc3F)(CO1)NC(=N)C(C)(C)S2(=O)=O
## Result 195 nM

## Task State, in one line, measured Ki of CC1(C)C(=N)N[C@@]2(CCOc3ccc(NC(=O)c4cnsn4)cc32)CS1(=O)=O
## Result 5 nM

## Task State, in one line, measured Ki of CC1(C)C[C@@H]2[C@](c3cc(Oc4cc(C#N)ccn4)ccc3F)(CO1)NC(=N)C(C)(C)S2(=O)=O
## Result 65.2 nM

## Task State, in one line, measured Ki of Cc1ncc2c(n1)C[C@@](C)(c1cc(NC(=O)c3ccc(F)cn3)ccc1F)NC2=N
## Result 4.5 nM

## Task State, in one line, measured Ki of CN1C(=N)N[C@](C)(c2c(F)ccc(Nc3nccc4cc(C#N)cnc34)c2F)CS1(=O)=O
## Result 1.1 nM
